Values were extracted from the supplement of paper PMC7156485.

system: HCC1569; assay: cell number relative to DMSO (% of DMSO); higher = more cells (less growth inhibition / toxicity); conditions: concentration: 10 µM; 24 h;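 further: TDF denotes transformed human dermal fibroblasts of mesenchymal origin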
PROPERTY_NAME: cell number
Just the number, please, no unit after it.

Cc1scc2c1N(C(=O)CN1CCN(C)CC1)c1ccccc1NC2=O.Cl.Cl [Telenzepine.2HCl] ... 101
NC(=O)Nc1cc(-c2cccc(F)c2)sc1C(=O)NC1CCCNC1 (stereo not given) ... 19.9
NCCCCN=C(N)N.O=S(=O)(O)O [Agmatine sulfate] ... 106
Cc1c(O)cc2c(c1C)OC(C)(CCCC(C)CCCC(C)CCCC(C)C)CC2 (stereo not given) ... 100
CC(N)C1CCC(C(=O)Nc2ccncc2)CC1.Cl.Cl (stereo not given) ... 110

# input Determine from records and report cell number for Br.CN1C2CCC1CC(OC(=O)C(O)c1ccccc1)C2 (racemic) [DL-Homatropine hydrobromide]
# output 106

# input Determine from records and report cell number for C[N+](C)(C)CC=O.[Cl-] [Betaine aldehyde chloride]
# output 104

# input Determine from records and report cell number for CC(NC(=O)CCc1nc(=O)c2ccccc2[nH]1)c1ccccc1 (stereo not given)
# output 103

# input Determine from records and report cell number for O=C1NC(=O)C(c2cnc3ccccn23)=C1c1cn2c3c(cc(F)cc13)CN(C(=O)N1CCCCC1)CC2
# output 66.9

# input Determine from records and report cell number for CC(C)(ON=C(C(=O)NC1C(=O)N2C(C(=O)[O-])=C(C[n+]3ccccc3)CSC12)c1csc(N)n1)C(=O)O (stereo not given)
# output 103

# input Determine from records and report cell number for CN(CCOc1ccc(CC(Nc2ccccc2C(=O)c2ccccc2)C(=O)O)cc1)c1ccccn1 (stereo not given)
# output 102

# input Determine from records and report cell number for C[N+](C)(C)CCO.[Br-] [Choline bromide]
# output 104

# input Determine from records and report cell number for CCCCCCCCCCCCCCCCOCC(COCC(F)(F)F)OP(=O)([O-])OC.[Li+] (stereo not given)
# output 102

# input Determine from records and report cell number for COc1ccc(Cl)cc1NC(=O)Nc1cc(C)nc2ccccc12 [IGF-1R Inhibitor II]
# output 103

# input Determine from records and report cell number for CCCc1nn(C)c2c(=O)nc(-c3cc(S(=O)(=O)N4CCN(C)CC4)ccc3OCC)[nH]c12
# output 101

# input Determine from records and report cell number for COc1ccc(CNC(=O)c2sc3nc(C)cc(C)c3c2N)cc1
# output 100

# input Determine from records and report cell number for CC1(NC(=O)CBr)CCC(C(C)(C)NCC(O)COc2cccc3[nH]ccc23)CC1 (racemic)
# output 95.8

# input Determine from records and report cell number for CCCCCCCC/C=C\CCCCCCCC(N)=O [(9Z)-9-octadecenamide]
# output 102

# input Determine from records and report cell number for C1COC(NC(C2CC2)C2CC2)=N1 [Rilmenidine hemifumarate]
# output 95.7

# input Determine from records and report cell number for CC(O)CCCC(O)C=CC1C(O)CC(=O)C1CC=CCCCC(=O)O [19(R)-Hydroxy-prostaglandin E2]
# output 98.1

# input Determine from records and report cell number for CN1C(C(=O)Nc2ccccn2)=C(O)c2sccc2S1(=O)=O
# output 100

# input Determine from records and report cell number for Cc1cc2cc3c(C)cc(=O)oc3c(C)c2o1
# output 97.9

# input Determine from records and report cell number for CON=C(C(=O)NC1C(=O)N2C(C(=O)[O-])=C(C[N+]3(C)CCCC3)CSC12)c1csc(N)n1 (stereo not given) [Cefepime]
# output 99.6

# input Determine from records and report cell number for COc1ccc2cc(C(C)C(=O)O)ccc2c1 (stereo not given)
# output 99.9
